molecular target: human MC3 receptor (Homo sapiens, UniProt P41968); construct: stably transfected with full length cDNA encoding human MC1 or MC3 receptors; 'respectively'); assay: In vitro agonist potency (EC50) against melanocortin receptor type 3, cAMP in recombinant cell line; conditions: cell line stably transfected with human MC3, 1 hour at 37° C.
Sequence (P41968 whole entry): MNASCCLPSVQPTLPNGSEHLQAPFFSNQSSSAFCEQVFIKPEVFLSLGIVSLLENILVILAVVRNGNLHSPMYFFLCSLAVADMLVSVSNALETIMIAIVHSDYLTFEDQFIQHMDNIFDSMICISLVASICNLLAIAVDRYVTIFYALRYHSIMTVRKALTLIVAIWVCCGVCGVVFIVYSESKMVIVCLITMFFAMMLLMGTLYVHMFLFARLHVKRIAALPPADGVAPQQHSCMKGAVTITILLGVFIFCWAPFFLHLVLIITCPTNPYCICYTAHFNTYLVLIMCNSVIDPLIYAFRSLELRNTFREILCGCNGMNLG
pEC50: −log10 of the molar value.
RESULT_TYPE: pEC50

C[C@@H]1CN(C(=O)[C@@H]2CN(c3ccc(=O)n(C)n3)C[C@H]2c2ccc(F)cn2)C[C@H](C)[C@@]1(O)c1ccc(Cl)cc1 [Example 7] : 5.80
CC1CN(C(=O)C2CN(c3cncc(F)c3)CC2c2ccc(Cl)cn2)CC(C)C1(O)C1CC1 (stereo not shown) [Example 24] : 5.60
COc1ccc(N2C[C@@H](C(=O)N3C[C@@H](C)[C@](O)(c4ccc(F)cc4)[C@@H](C)C3)[C@H](c3ccc(Cl)cn3)C2)nn1 [Example 4] : 7.25

[a] CC1CN(C(=O)C2CN(c3ccc(=O)n(C)n3)CC2c2ccc(F)cn2)CC(C)C1(O)c1ccccc1 (stereo not shown) [Example 39]
[b] C[C@@H]1CN(C(=O)[C@@H]2CN(c3ccc(Cl)nn3)C[C@H]2c2ccc(F)cn2)C[C@H](C)[C@@]1(O)c1ccccc1 [Example 35]
[c] COc1ccc(N2CC(C(=O)N3CC(C)C(O)(C4CC4)C(C)C3)C(c3ccc(Cl)cn3)C2)nn1 (stereo not shown) [Example 26]
[d] C[C@@H]1CN(C(=O)[C@@H]2CN(c3ccc(Cl)nn3)C[C@H]2c2ccc(F)cn2)C[C@H](C)[C@@]1(O)c1ccc(Cl)cc1 [Example 5]
[e] C[C@@H]1CN(C(=O)[C@@H]2CN(c3ccc(=O)n(C)n3)C[C@H]2c2ccc(Cl)cn2)C[C@H](C)[C@@]1(O)C1CCCCC1 [Example 17]
Ask | Arrange the 5 entries by pEC50 so the values rise. Please respond with the labels ordered as the question requires.
Reply | c, a, b, d, e
(c: 5.38, a: 5.68, b: 6.06, d: 6.69, e: 7.26)

[P] COc1ccc([C@@H]2CN(c3ccc(C#N)nn3)C[C@H]2C(=O)N2C[C@@H](C)[C@](O)(c3ccc(F)cc3)[C@@H](C)C2)nc1 [Example 43]
[Q] C[C@@H]1CN(C(=O)[C@@H]2CN(c3cccnn3)C[C@H]2c2ccc(Cl)cn2)C[C@H](C)[C@@]1(O)c1ccccn1 [Example 9]
Ask | Hey, between P and Q which has a smaller measured pEC50? Please identify the chosen entry by its label.
Reply | P
(P: 5.80, Q: 6.28)

[P] C[C@@H]1CN(C(=O)[C@@H]2CN(c3ccc(=O)[nH]n3)C[C@H]2c2ccc(F)cn2)C[C@H](C)[C@@]1(O)c1ccc(Cl)cc1 [Example 6]
[Q] CC1CN(C(=O)C2CN(c3cncc(F)c3)CC2c2ccc(Cl)cn2)CC(C)C1(O)c1ccc(F)cc1 (stereo not shown) [Example 25]
Ask | Hey, between P and Q which has a smaller measured pEC50? Please identify the chosen entry by its label.
Reply | P

---

biological target: MC4 receptor (MC4R) (Homo sapiens); construct: expressed in transfected cells; host or cells: CHO-CRE MC4R cells (membranes); assay: AGRP inhibition: competition binding vs [125I]AGRP(87-132) at CHO-CRE MC4R cell membranes; details: vs 0.3 nM [125I]AGRP(87-132)
Sequence (P32245 whole entry): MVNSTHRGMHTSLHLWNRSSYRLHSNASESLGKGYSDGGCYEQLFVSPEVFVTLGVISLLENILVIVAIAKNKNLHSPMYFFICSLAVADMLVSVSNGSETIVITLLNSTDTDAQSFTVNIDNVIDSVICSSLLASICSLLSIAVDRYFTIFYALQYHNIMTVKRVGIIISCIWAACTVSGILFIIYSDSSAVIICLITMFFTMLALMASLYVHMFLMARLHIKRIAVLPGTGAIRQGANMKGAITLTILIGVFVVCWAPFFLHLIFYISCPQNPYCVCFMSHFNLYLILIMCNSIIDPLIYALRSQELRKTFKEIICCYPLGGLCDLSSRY
RESULT_TYPE: Ki (nM)

[A] C[C@@H]1CN(C(=O)[C@@H]2CN(c3ccc(Cl)nn3)C[C@H]2c2ccc(F)cn2)C[C@H](C)[C@@]1(O)c1ccc(Cl)cc1
[B] COc1ccc([C@@H]2CN(c3ccc(C#N)nn3)C[C@H]2C(=O)N2C[C@@H](C)[C@](O)(c3ccc(F)cc3)[C@@H](C)C2)nc1
Ask | Hey, between A and B which has a smaller measured Ki? Please identify the chosen entry by its label.
Reply | B
(B: 248 nM, A: 552 nM)
